Target: T1, purified sIL-5Rα (Asp1-Asn313 of SEQ ID NO: 66) (Homo sapiens (Human), UniProt Q01344 21-333)
T1 construct: also called the purified sIL-5Rα
T1 sequence: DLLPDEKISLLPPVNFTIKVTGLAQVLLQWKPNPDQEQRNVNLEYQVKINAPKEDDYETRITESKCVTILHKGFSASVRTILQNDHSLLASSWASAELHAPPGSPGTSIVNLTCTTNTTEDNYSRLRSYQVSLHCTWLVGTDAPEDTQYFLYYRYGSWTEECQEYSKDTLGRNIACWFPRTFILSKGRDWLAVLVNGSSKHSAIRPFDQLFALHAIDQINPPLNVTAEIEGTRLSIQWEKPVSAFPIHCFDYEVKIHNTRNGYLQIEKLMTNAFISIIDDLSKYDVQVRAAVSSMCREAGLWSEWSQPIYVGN
Assay: BLI (Octet QKe), antibody on AHC sensor, purified sIL-5Rα in solution, 1:1 model
readoutKind: kon (M⁻¹ s⁻¹)
Give a bare numeral; the unit M⁻¹ s⁻¹ is implied.

For orientation, consider the following solved cases.
binder | readingUnit | kon
5R65.45 (antibody, IgG1, V domains shown, IgG1) VH: QVQLVQSGAEVKKPGSSVKVSCKASGYTFTSYWINWVRQAPGQGLEWIGHIYPNKNENYYNHKFKDKATLTVDKSTNTAYMELSSLRSEDTAVYYCTREYYGRSYYNAMDYWGQGTTLTVSS VL: DIQMTQSPSTLSASVGDRVTITCKASQNVGTAVAWYQQKPGKAPKLLIYWASTRHTGVPDRFSGSGSGTDFTLTISSLQPDDFATYYCQQFGRYPYTFGSGTKVEVK | M⁻¹ s⁻¹ | 24900
5R65.14 (antibody, IgG1, V domains shown, IgG1) VH: QVQLVQSGAEVKKPGSSVKVSCKASGYTFTSYWINWVRQAPGQGLEWIGHIYPNKNENYYNHKFKDKATLTVDKSTNTAYMELSSLRSEDTAVYYCTREHYGRPYYNAMDYWGQGTTLTVSS VL: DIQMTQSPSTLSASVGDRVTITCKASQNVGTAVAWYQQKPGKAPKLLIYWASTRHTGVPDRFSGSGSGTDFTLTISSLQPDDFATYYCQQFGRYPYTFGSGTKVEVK | M⁻¹ s⁻¹ | 23000

# return recorded kon for entry 5R65 (antibody, V domains shown, IgG1 (variable regions in a pcDNA3.4 vector encoding IgG1 constant regions); also called anti-IL-5Rα humanized antibody 5R65; anti-IL-5Rα antibody (5R65)) VH: QVQLVQSGAEVKKPGSSVKVSCKASGYTFTSYWINWVRQAPGQGLEWIGHIYPNKNENYYNHKFKDKATLTVDKSTNTAYMELSSLRSEDTAVYYCTRDYYGRSYYYAMDYWGQGTTLTVSS VL: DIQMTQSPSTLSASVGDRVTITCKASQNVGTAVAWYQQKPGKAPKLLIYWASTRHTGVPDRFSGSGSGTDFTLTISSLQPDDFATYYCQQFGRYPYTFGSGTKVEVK
22700

# return recorded kon for entry 5R65.39 (antibody, IgG1, V domains shown, IgG1) VH: QVQLVQSGAEVKKPGSSVKVSCKASGYTFTSYWINWVRQAPGQGLEWIGHIYPNKNENYYNHKFKDKATLTVDKSTNTAYMELSSLRSEDTAVYYCTREFYGRSRYSAMDYWGQGTTLTVSS VL: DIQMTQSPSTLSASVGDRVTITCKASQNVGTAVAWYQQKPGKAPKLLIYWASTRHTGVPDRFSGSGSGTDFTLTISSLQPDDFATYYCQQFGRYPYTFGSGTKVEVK
28000

These entries and their values trace back to patent US20230357415A1.
